- assay system: T1, recombinant rat MASP1 active protease (amino acids 302-704, C-terminal His Tag) (rat, UniProt Q8CHN8 302-704)
- T1 sequence: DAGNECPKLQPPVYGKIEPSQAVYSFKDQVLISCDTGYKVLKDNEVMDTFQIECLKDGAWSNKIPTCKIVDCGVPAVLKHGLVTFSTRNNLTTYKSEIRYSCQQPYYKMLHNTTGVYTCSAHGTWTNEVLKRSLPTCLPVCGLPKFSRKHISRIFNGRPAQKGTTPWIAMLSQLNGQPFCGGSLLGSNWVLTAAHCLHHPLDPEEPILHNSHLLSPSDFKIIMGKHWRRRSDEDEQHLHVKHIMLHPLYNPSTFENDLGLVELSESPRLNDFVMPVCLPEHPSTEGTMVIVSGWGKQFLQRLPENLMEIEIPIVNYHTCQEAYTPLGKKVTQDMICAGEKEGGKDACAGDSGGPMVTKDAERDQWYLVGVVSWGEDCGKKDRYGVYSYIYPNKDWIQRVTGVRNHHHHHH
- method description: cell-based or functional assay
Numbered stars: 1 amine (or outer) side, 2 acyl side, 3 side chain; on linkers, the order of the positions; unused ones are H or OH. Bridge positions count the residues as written; N and C are the ends. Square brackets hold non-standard residues; d marks the D form. Ends that are not written are not given here. X15 = (3S)‑2‑azaspiro(4.4)nonane‑3‑carboxylic acid, O=C([C@@H]1CC2(CCCC2)CN1[*:1])[*:2]; cPrCO(1-aminomethyl) = O=C(C1(CN[*:1])CC1)[*:2]; Oic = O=C(O)[C@@H]1C[C@@H]2CCCC[C@@H]2N1; Nva(3-Et) = CCC(CC)[C@H](N)C(=O)O; tBuAla = CC(C)(C)C[C@H](N)C(=O)O; Pen = CC(C)(S)[C@H](N)C(=O)O; NMeC = CN[C@@H](CS)C(=O)O; Sar = CNCC(=O)O
Examples of binders with documented rat MASP1 IC50 follow.
Write the value in nM as a bare number.

Examples with their reported rat MASP1 IC50 follow.
binder: AICSRSLPP[Nva(3-Et)]CIPD-NH2 (disulfide 3-11; N-terminus assumed; SMILES CCC(CC)[C@@H]1NC(=O)[C@@H]2CCCN2C(=O)[C@@H]2CCCN2C(=O)[C@H](CC(C)C)NC(=O)[C@H](CO)NC(=O)[C@H](CCCNC(=N)N)NC(=O)[C@H](CO)NC(=O)[C@@H](NC(=O)[C@@H](NC(=O)[C@H](C)N)[C@@H](C)CC)CSSC[C@@H](C(=O)N[C@H](C(=O)N2CCC[C@H]2C(=O)N[C@@H](CC(=O)O)C(N)=O)[C@@H](C)CC)NC1=O) [Example 209: AIC+SRSLPP-((S)-2-amino-3-ethyl-pentanoic acid)-C+IPD-NH2]
rat MASP1 IC50 (nM): 330

binder: [Sar]ICSRSLP[Oic]I[Pen]IP[5‑Azaspiro(2.4)heptane‑1‑carboxylic acid]-OH (disulfide 3-11) [Example 438: ((N-Me)G)-IC+SRSLP-(Oic)-I-(Pen)+IP-((5-Azaspiro[2.4]heptane-1-carboxylic acid)-OH]
rat MASP1 IC50 (nM): 31

binder: [Sar]ICSRS[tBuAla]P[X15]I[Pen]IPD-OH (disulfide 3-11; N-terminus assumed; SMILES CC[C@H](C)[C@H](NC(=O)CNC)C(=O)N[C@H]1CSSC(C)(C)[C@@H](C(=O)N[C@H](C(=O)N2CCC[C@H]2C(=O)N[C@@H](CC(=O)O)C(=O)O)[C@@H](C)CC)NC(=O)[C@H]([C@@H](C)CC)NC(=O)[C@@H]2CC3(CCCC3)CN2C(=O)[C@@H]2CCCN2C(=O)[C@H](CC(C)(C)C)NC(=O)[C@H](CO)NC(=O)[C@H](CCCNC(=N)N)NC(=O)[C@H](CO)NC1=O)
rat MASP1 IC50 (nM): 26

So, [cPrCO(1-aminomethyl)]ICSRS[tBuAla]PPI[Pen]IPD-NH2 (disulfide 3-11; N-terminus assumed; SMILES CC[C@H](C)[C@@H]1NC(=O)[C@@H]2CCCN2C(=O)[C@@H]2CCCN2C(=O)[C@H](CC(C)(C)C)NC(=O)[C@H](CO)NC(=O)[C@H](CCCNC(=N)N)NC(=O)[C@H](CO)NC(=O)[C@@H](NC(=O)[C@@H](NC(=O)C2(CN)CC2)[C@@H](C)CC)CSSC(C)(C)[C@@H](C(=O)N[C@H](C(=O)N2CCC[C@H]2C(=O)N[C@@H](CC(=O)O)C(N)=O)[C@@H](C)CC)NC1=O) [Example 32: (ACMP)-IC+SRS-((tBu)A)-PPI-(Pen)+IPD-NH2] ? Its rat MASP1 IC50 was 56

So, [Sar]ICSRSLPPI[NMeC]IPD-OH (disulfide 3-11; N-terminus assumed; SMILES CC[C@H](C)[C@H](NC(=O)CNC)C(=O)N[C@H]1CSSC[C@@H](C(=O)N[C@H](C(=O)N2CCC[C@H]2C(=O)N[C@@H](CC(=O)O)C(=O)O)[C@@H](C)CC)N(C)C(=O)[C@H]([C@@H](C)CC)NC(=O)[C@@H]2CCCN2C(=O)[C@@H]2CCCN2C(=O)[C@H](CC(C)C)NC(=O)[C@H](CO)NC(=O)[C@H](CCCNC(=N)N)NC(=O)[C@H](CO)NC1=O) [Example 232: ((N-Me)G)-IC+SRSLPPI-((N-Me)C)+IPD-OH] ? Its rat MASP1 IC50 was 67.3
